# System: HCV genotype 1b replicon
# PROTOCOL: HCV Replicon Assay
# Assay type: cell-based
# RUN CONDITIONS: Hepatitis C virus, 72 h, Zluc cells (Huh-7-derived, HCV genotype 1b replicon, luciferase reporter), 72 hours; read-out: HCV Replicon EC50
pEC50: −log10 of the molar value.
Field: pEC50. Provide a value for each of the compounds that follow.

Recorded pEC50, per entry:
COMPOUND	MEASURED TARGET	QUANTITY KIND	REPORTED RESULT
CCOC(=O)N[C@@H](C)COP1(=O)OC[C@H]2O[C@@H](n3cnc4c(OCC)nc(N)nc43)[C@](C)(F)[C@@H]2O1 (stereo partly drawn) [Compound 11]	HCV genotype 1b replicon	pEC50	> 6.60
CCOc1nc(N)nc2c1ncn2[C@@H]1O[C@@H]2COP(=O)(OCCSSC(C)(C)C)O[C@H]2[C@@]1(C)F (single isomer, unassigned) [Compound 24 Diastereomer 1]	HCV genotype 1b replicon	pEC50	> 6.60
CCOc1nc(N)nc2c1ncn2[C@@H]1O[C@@H]2COP(=O)(OCCSC(=O)C(C)(C)CO)O[C@H]2[C@@]1(C)F (single isomer, unassigned) [Compound 5 Diastereomer 1]	HCV genotype 1b replicon	pEC50	> 6.60
CCOc1nc(N)nc2c1ncn2[C@@H]1O[C@@H]2COP(=O)(OCCCNC(=O)[C@H](O)C(C)(C)CO)O[C@H]2[C@@]1(C)O (stereo partly drawn) [Compound 39]	HCV genotype 1b replicon	pEC50	> 6.60
COc1nc(N)nc2c1ncn2[C@@H]1O[C@@H]2COP(=O)(OCC(=O)OC(C)C)O[C@H]2[C@@]1(C)O (stereo partly drawn) [Compound 28]	HCV genotype 1b replicon	pEC50	> 6.60

Form: Entry = CCOc1nc(N)nc2c1ncn2[C@@H]1O[C@@H]2COP(=O)(OCCCC(=O)OC(C)C)O[C@H]2[C@@]1(C)O (single isomer, unassigned) [Compound 1 Diastereomer 1] | System = HCV genotype 1b replicon | pEC50 = ____ 6.00 to 6.60

Values from patent US9296778B2
